# Target system: Cruzipain (Trypanosoma cruzi, UniProt P25779)
# Construct: Wild-type cruzipain, derived from Trypanosoma cruzi Dm28 epimastigotes; tissue Dr. Julio Scharfstein (Instituto de Biofisica Carlos Chagas Filho); host or cells: Trypanosoma cruzi Dm28 epimastigotes
# Sequence (P25779 123-467): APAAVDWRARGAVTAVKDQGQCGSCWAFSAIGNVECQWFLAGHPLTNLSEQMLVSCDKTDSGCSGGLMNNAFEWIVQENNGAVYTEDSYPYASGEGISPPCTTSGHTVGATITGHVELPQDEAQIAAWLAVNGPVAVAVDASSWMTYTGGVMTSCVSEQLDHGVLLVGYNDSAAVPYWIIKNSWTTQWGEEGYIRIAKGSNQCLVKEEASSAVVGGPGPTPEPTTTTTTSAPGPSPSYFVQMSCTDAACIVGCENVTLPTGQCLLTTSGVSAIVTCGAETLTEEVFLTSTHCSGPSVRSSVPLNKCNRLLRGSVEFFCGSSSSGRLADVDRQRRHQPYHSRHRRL
# Protocol: Trypanosoma cruzi cruzipain peptidase activity assay (Ki)
# Assay type: biochemical
# Condition details: wild-type cruzipain from Trypanosoma cruzi Dm28 epimastigotes, pH 6.75, 25±1° C
# Method: Assay protocols were based on literature precedent (Tablel; Barrett, A. J., Rawlings, N. D. and Woessner, J. F., 1998, Handbook of Proteolytic Enzymes, Academic Press, London and references therein) and modified as required to suit local assay protocols. Enzyme was added as required to initiate the reaction and the activity, as judged by the change in fluorescence upon conversion of substrate to product, was monitored over time. All assays were carried out at 25±1° C. […]
pKi: −log10 of the molar value.
# maps each entry to its pKi

[
  {
    "Compound": "CC(C)(C)c1ccc(C(=O)N[C@@H](Cc2ccc(O)cc2)C(=O)N2CC[C@H]3OCC(=O)[C@H]32)cc1 [Example 3]",
    "pKi": 6.70
  },
  {
    "Compound": "O=C(N[C@@H](CSCc1ccccc1)C(=O)N1CC[C@H]2OCC(=O)[C@H]21)c1ccoc1 [Example 48]",
    "pKi": "< 4.60"
  },
  {
    "Compound": "O=C(N[C@@H](Cc1ccc(O)cc1)C(=O)N1CC[C@H]2OCC(=O)[C@H]21)c1cccc2ccccc12 [Example 69]",
    "pKi": "< 5.30"
  },
  {
    "Compound": "CC(C)C[C@H](NC(=O)c1ccc(Oc2ccccc2)cc1)C(=O)N1CC[C@H]2OCC(=O)[C@H]21 [Example 10]",
    "pKi": "< 5.30"
  }
]

---

# Target system: Bovine Cathepsin S (Bos taurus, UniProt P25326)
# Construct: purchased CN Biosciences
# Sequence (P25326 115-331): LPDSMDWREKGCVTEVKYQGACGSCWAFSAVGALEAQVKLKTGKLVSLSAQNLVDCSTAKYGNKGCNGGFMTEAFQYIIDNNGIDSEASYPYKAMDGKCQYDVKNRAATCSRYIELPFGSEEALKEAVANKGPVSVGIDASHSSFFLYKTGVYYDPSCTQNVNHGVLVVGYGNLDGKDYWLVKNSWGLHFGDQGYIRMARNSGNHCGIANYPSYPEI
# Protocol: Cathepsin peptidase activity assay, bovine cathepsin S (Ki)
# Assay type: biochemical
# Condition details: boc-Val-Leu-Lys-AMC, pH 6.5, 25±1° C
Measured quantity: Ki

[
  {
    "Structure": "CC(C)(C)c1ccc(C(=O)N[C@@H](Cc2ccc(O)cc2)C(=O)N2CC[C@H]3OCC(=O)[C@H]32)cc1",
    "Test result": "> 100 µM"
  },
  {
    "Structure": "O=C(N[C@@H](Cc1ccc(O)cc1)C(=O)N1CC[C@H]2OCC(=O)[C@H]21)c1cccc2ccccc12",
    "Test result": "> 10 µM"
  },
  {
    "Structure": "O=C(N[C@@H](CSCc1ccccc1)C(=O)N1CC[C@H]2OCC(=O)[C@H]21)c1ccoc1",
    "Test result": "0.3 µM"
  },
  {
    "Structure": "CC(C)C[C@H](NC(=O)c1ccc(Oc2ccccc2)cc1)C(=O)N1CC[C@H]2OCC(=O)[C@H]21",
    "Test result": "> 10 µM"
  }
]

---

# maps each entry to its Ki
# Target system: Human Cathepsin K (Homo sapiens, UniProt P43235)
# Sequence (P43235 115-329): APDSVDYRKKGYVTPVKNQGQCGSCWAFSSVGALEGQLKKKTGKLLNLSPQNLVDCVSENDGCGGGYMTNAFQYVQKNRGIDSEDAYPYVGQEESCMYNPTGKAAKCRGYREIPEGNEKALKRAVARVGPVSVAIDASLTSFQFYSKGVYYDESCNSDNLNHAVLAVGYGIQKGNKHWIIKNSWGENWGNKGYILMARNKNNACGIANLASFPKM

[
  {
    "Structure": "CC(C)(C)c1ccc(C(=O)N[C@@H](Cc2ccc(O)cc2)C(=O)N2CC[C@H]3OCC(=O)[C@H]32)cc1",
    "Ki": "> 5000 nM"
  },
  {
    "Structure": "CC(C)C[C@H](NC(=O)c1ccc(Oc2ccccc2)cc1)C(=O)N1CC[C@H]2OCC(=O)[C@H]21",
    "Ki": "100 nM"
  }
]
